Data provenance: patent US8119645B2

Assay: logP by reversed-phase HPLC (EEC Directive 79/831 Annex V.A8)
Assay type: physicochemical
Details: HPLC C18, 40° C., 0.1% aqueous formic acid / acetonitrile gradient
Threshold 3. LogP below it: class 1. LogP at it or above: class 0.

Check out these entries, answers already filled in.
COMPOUND: CCCCCOC(=O)Nc1cccc(CON=C(c2ccsc2Cl)n2nnnc2C)n1 [Compound 16]
LABEL_CLASS: class 0
--
COMPOUND: Cn1nnnc1C(=NOCc1csc(NC(=O)C2CC2)n1)c1csc(-c2ccccc2)n1 [Compound 168]
LABEL_CLASS: class 0
--
COMPOUND: Cc1nnnn1C(=NOCc1csc(NC(=O)NCCc2ccccc2)n1)c1ccc(Cl)s1 [Compound 104]
LABEL_CLASS: class 0

Please let me know if CCCCCC(=O)Nc1nc(CON=C(c2ccc(C)o2)n2nnnc2C)cs1 [Compound 64] shows LogP below 3.
class 0

Also CCCC(=O)Nc1nc(CON=C(c2ccc(-c3ccccc3)s2)n2nnnc2C)cs1 [Compound 56] , if possible.
class 0

Also Cc1nnnn1C(=NOCc1csc(NC(=O)CCCCl)n1)c1ccc(-c2ccccc2)o1 [Compound 136] , if possible.
class 0

Also Cc1nnnn1C(=NOCc1csc(NC(=O)CCc2ccccc2)n1)c1ccsc1 [Compound 33] , if possible.
class 0

Also Cc1nnnn1C(=NOCc1cccc(NC(=O)C(C)(C)C)n1)c1ccsc1Cl [Compound 2] , if possible.
class 0

* * *

Test: logP by reversed-phase HPLC (EEC Directive 79/831 Annex V.A8)
Type: physicochemical
Conditions: HPLC C18, 40° C., 0.1% aqueous formic acid / acetonitrile gradient
In this scheme, each record receives a class according to its LogP; the ranges are I: < 3; II: ≥ 3 and < 4; III: ≥ 4

SMI: Cc1nnnn1C(=NOCc1cccc(NC(=O)c2ccccc2)n1)c1ccsc1Cl
LABEL_CLASS: II

SMI: Cc1nnnn1C(=NOCc1csc(NC(=O)Cc2ccccc2)n1)c1ccc(Cl)s1
LABEL_CLASS: II

Input COCCOCC(=O)Nc1nc(CON=C(c2ccsc2)n2nnnc2C)cs1 ; output its category
I

Also CCc1nnnn1C(=NOCc1csc(NC(=O)C(C)(C)C)n1)c1ccsc1 , if possible.
II

Also Cc1nnnn1C(=NOCc1csc(NC(=O)CCCc2ccccc2)n1)c1ccsc1 , if possible.
II

Also CCCCCCCCNC(=O)Nc1nc(CON=C(c2ccsc2)n2nnnc2C)cs1 , if possible.
II

Also Cc1nnnn1C(=NOCc1cccc(N)n1)c1ccsc1 , if possible.
I

Also Cc1ccc(C(=NOCc2csc(NC(=O)C3CC3)n2)n2nnnc2C)s1 , if possible.
I

Also CCCCCC(=O)Nc1nc(CON=C(c2ccsc2Cl)n2nnnc2C)cs1 , if possible.
II

Also Cc1ccc(C(=NOCc2cccc(NC(=O)OCCc3ccccc3)n2)n2nnnc2C)o1 , if possible.
II

Also Cc1nnnn1C(=NOCc1csc(N)n1)c1ccc(-c2ccccc2)o1 , if possible.
I

Also Cc1nnnn1C(=NOCc1csc(N)n1)c1ccc(Br)s1 , if possible.
I

Also Cc1nnnn1C(=NOCc1csc(NC(=O)C2CCCCC2)n1)c1ccsc1Cl , if possible.
III

* * *

Test: logP by reversed-phase HPLC (EEC Directive 79/831 Annex V.A8)
Type: physicochemical
Conditions: HPLC C18, 40° C., 0.1% aqueous formic acid / acetonitrile gradient
Quick reference for LogP among some compounds

Solved cases (5 shown):
SMI: CCCCCC(=O)Nc1nc(CON=C(c2ccsc2)n2nnnc2C)cs1
LogP: 3.25
--
SMI: COCCOCC(=O)Nc1nc(CON=C(c2ccc(Cl)s2)n2nnnc2C)cs1
LogP: 2.88
--
SMI: Cn1nnnc1C(=NOCc1csc(NC(=O)OCCc2ccccc2)n1)c1csc(-c2ccccc2)n1
LogP: 4.06
--
SMI: Cc1nnnn1C(=NOCc1csc(NC(=S)NCCc2ccccc2)n1)c1ccsc1
LogP: 3.65
--
SMI: Cc1nnnn1C(=NOCc1csc(NC(=O)Cc2ccccc2)n1)c1ccsc1Cl
LogP: 3.21

What measured LogP goes with Cc1nnnn1C(=NOCc1csc(NC(=O)C2CC2)n1)c1ccc(Br)s1 ?
3.04

Also Cc1nnnn1C(=NOCc1csc(NC(=O)OCCc2ccccc2)n1)c1ccsc1 , if possible.
3.46

Also Cc1nnnn1C(=NOCc1csc(NC(=O)CCc2ccccc2)n1)c1ccc(Br)s1 , if possible.
3.76

* * *

Experiment: logP by reversed-phase HPLC (EEC Directive 79/831 Annex V.A8)
Assay type: physicochemical
Conditions: HPLC C18, 40° C., 0.1% aqueous formic acid / acetonitrile gradient
Quick reference for LogP among some compounds
Write the value as a bare number.

What measured LogP goes with Cc1nnnn1C(=NOCc1csc(NC(=O)C(C)C)n1)c1ccc(Br)s1 ?
3.22

Also COCCOC(=O)Nc1nc(CON=C(c2ccc(Br)s2)n2nnnc2C)cs1 , if possible.
3.1

Also CCCCCCCCC(=O)Nc1nc(CON=C(c2ccc(-c3ccccc3)o2)n2nnnc2C)cs1 , if possible.
5.01

Also Cc1ccc(C(=NOCc2csc(NC(=O)Cc3ccccc3)n2)n2nnnc2C)s1 , if possible.
3.35

Also Cc1nnnn1C(=NOCc1cccc(NC(=O)c2ccccc2)n1)c1ccsc1 , if possible.
3.01

Also CCCC(=O)Nc1nc(CON=C(c2ccc(-c3ccc(Cl)c(Cl)c3)o2)n2nnnc2C)cs1 , if possible.
4.11

Also Cc1nnnn1C(=NOCc1csc(NC(=O)CCCc2ccccc2)n1)c1ccc(Cl)s1 , if possible.
4.12

Also Cc1ccc(C(=NOCc2csc(NC(=O)Cc3ccccc3)n2)n2nnnc2C)o1 , if possible.
2.92

* * *

Assay: logP by reversed-phase HPLC (EEC Directive 79/831 Annex V.A8)
Assay type: physicochemical
Settings: HPLC C18, 40° C., 0.1% aqueous formic acid / acetonitrile gradient
MEASURED_ATTRIBUTE: LogP

SMI: Cc1ccc(C(=NOCc2csc(NC(=O)CCCc3ccccc3)n2)n2nnnc2C)s1
LogP: 3.81
--
SMI: COCCOC(=O)Nc1nc(CON=C(c2ccc(Cl)s2)n2nnnc2C)cs1
LogP: 3.05
--
SMI: CCCCCC(=O)Nc1nc(CON=C(c2ccc(-c3ccc(Cl)c(Cl)c3)o2)n2nnnc2C)cs1
LogP: 4.78
--
SMI: CCCCCC(=O)Nc1nc(CON=C(c2ccc(-c3ccccc3)s2)n2nnnc2C)cs1
LogP: 4.58
--
SMI: C=CCC(=O)Nc1nc(CON=C(c2ccc(C)o2)n2nnnc2C)cs1
LogP: 2.42
--
SMI: Cc1nnnn1C(=NOCc1csc(NC(=O)Nc2ccccc2)n1)c1ccsc1
LogP: 2.88
--
SMI: Cc1nnnn1C(=NOCc1csc(NC(=O)COCc2ccccc2)n1)c1ccc(Br)s1
LogP: 3.76
--
SMI: Cc1nnnn1C(=NOCCc1csc(NC(=O)C(C)(C)C)n1)c1ccsc1
LogP: 3.19
--
SMI: Cc1nnnn1C(=NOCc1csc(NC(=O)NCc2ccccc2)n1)c1ccc(Cl)s1
LogP: 3.32
--
SMI: COCCOC(=O)Nc1cccc(CON=C(c2ccsc2Cl)n2nnnc2C)n1
LogP: 2.66

What measured LogP goes with Cc1nnnn1C(=NOCc1cccc(N)n1)c1ccsc1Cl ?
1.39

Also Cn1nnnc1C(=NOCc1cccc(NC(=O)C(C)(C)C)n1)c1csc(-c2ccccc2)n1 , if possible.
3.7

Also Cc1nnnn1C(=NOCc1csc(NC(=O)OCCc2ccccc2)n1)c1ccc(Cl)s1 , if possible.
4.24

Also Cc1ccc(C(=NOCc2csc(NC(=O)C(C)(C)C)n2)n2nnnc2C)s1 , if possible.
3.42

* * *

Assay: logP by reversed-phase HPLC (EEC Directive 79/831 Annex V.A8)
Format: physicochemical
Quick reference for chromatographic logP among some molecules
Write the value as a bare number.

Solved cases (4 shown):
MOLECULE: Cc1nnnn1/C(=N/OCc1csc(NC(=O)C(C)(C)C)n1)c1ccsc1 [Compound 18]
VAL: 2.94

MOLECULE: CCCCCC(=O)Nc1cccc(CO/N=C(\c2csc(-c3ccccc3)n2)c2nnnn2C)n1 [Compound 178]
VAL: 4.06

MOLECULE: Cn1nnnc1/C(=N/OCc1cccc(N2C(=O)c3ccccc3C2=O)n1)c1csc(-c2ccccc2)n1 [Compound 173]
VAL: 3.46

MOLECULE: Cc1nnnn1/C(=N/OCc1csc(N)n1)c1ccsc1 [Compound 20]
VAL: 1.32

What measured chromatographic logP goes with Cn1nnnc1/C(=N/OCc1cccc(N)n1)c1csc(-c2ccccc2)n1 [Compound 174] ?
1.57

* * *

Assay: logP by reversed-phase HPLC (EEC Directive 79/831 Annex V.A8)
Type: physicochemical
Settings: HPLC C18, 40° C., 0.1% aqueous formic acid / acetonitrile gradient
Decide using LogP: a value greater than or equal to 3 is true (1), a smaller one is false (0).

Check out these entries, answers already filled in.
COMPOUND: CCCCCC(=O)Nc1cccc(CON=C(c2ccc(C)s2)n2nnnc2C)n1 [Compound 127]
LABEL_CLASS: true (1)

COMPOUND: C=CCNC(=O)Nc1nc(CON=C(c2ccsc2)n2nnnc2C)cs1 [Compound 27]
LABEL_CLASS: false (0)

COMPOUND: COCCOC(=O)Nc1nc(CON=C(c2ccc(C)s2)n2nnnc2C)cs1 [Compound 130]
LABEL_CLASS: false (0)

COMPOUND: Cc1ccc(C(=NOCc2csc(NC(=O)CCCc3ccccc3)n2)n2nnnc2C)o1 [Compound 60]
LABEL_CLASS: true (1)

COMPOUND: Cc1nnnn1C(=NOCc1csc(NC(=O)OCc2ccccc2)n1)c1ccc(Cl)s1 [Compound 109]
LABEL_CLASS: true (1)

COMPOUND: Cc1nnnn1C(=NOCc1csc(NC(=O)OCc2ccccc2)n1)c1ccsc1 [Compound 46]
LABEL_CLASS: true (1)

COMPOUND: C=CCC(=O)Nc1nc(CON=C(c2ccsc2)n2nnnc2C)cs1 [Compound 40]
LABEL_CLASS: false (0)

COMPOUND: Cc1ccc(C(=NOCc2csc(NC(=O)CCc3ccccc3)n2)n2nnnc2C)o1 [Compound 61]
LABEL_CLASS: true (1)

Here is another compound to look at.
I'd appreciate it if you could say whether Cc1ccc(C(=NOCc2cccc(N)n2)n2nnnc2C)o1 [Compound 72] has LogP at least equal to 3.
false (0)
